For each record, write down the corresponding protein stability index.
B1: ADAMTS4 (parent)
chain: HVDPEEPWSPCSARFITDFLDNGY

Variants of: B1
Assay: protein stability index of a GFP-peptide fusion (GPS, HEK-293T) (PSI 1-6); higher = more stable;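 note: lentivirally expressed fusions sorted by FACS into six bins by GFP to DsRed ratio, PSI derived from sequencing read proportions per bin multiplied by bin number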
Details: c terminus: a fixed tail appended
Answer as a number with no unit attached.

QUERY: Look at this variant and give its reported protein stability index. V2P
RESULT: 2.23

QUERY: What does the data say about its protein stability index? Entry: V2A
RESULT: 2.36

QUERY: Query (variant): S12Q ; field requested: protein stability index
RESULT: 2.1

QUERY: Need protein stability index of D3S , thanks.
RESULT: 2.48

QUERY: Please give the measured protein stability index for this variant: R14C
RESULT: 1.66

QUERY: Which protein stability index value is on record for H1R ?
RESULT: 2.26

QUERY: So what does the record say about protein stability index for A13E ?
RESULT: 2.1

QUERY: # input variant: W8E ; wanted: its protein stability index
RESULT: 3.92

QUERY: Reported protein stability index, variant R14I : ____
RESULT: 2.28

QUERY: // query protein stability index value for entry A13G
RESULT: 1.5

QUERY: Report protein stability index for P4C please.
RESULT: 2.23

QUERY: For the variant shown here, S12V , give the reported protein stability index.
RESULT: 2.01

QUERY: Requested read-out: protein stability index. Entry: T17P
RESULT: 1.88

QUERY: Fill in: protein stability index of V2G is ___
RESULT: 2.9

QUERY: # input variant: R14Q ; wanted: its protein stability index
RESULT: 2

QUERY: Fill in the blank: the reported protein stability index of I16M is ____.
RESULT: 1.69

QUERY: Name the recorded protein stability index for W8Y .
RESULT: 2.89

QUERY: Field request: protein stability index | item: G23I
RESULT: 2.05

QUERY: Find the recorded protein stability index belonging to P10E and report it.
RESULT: 2.48

QUERY: Could you tell me which protein stability index is on file for S9G ?
RESULT: 2.24
